Reference source for all entries: patent US20230002374A1

# TARGET OF ASSAY: human GPR52 (Homo sapiens)
# Sequence (Q9Y2T5 whole entry): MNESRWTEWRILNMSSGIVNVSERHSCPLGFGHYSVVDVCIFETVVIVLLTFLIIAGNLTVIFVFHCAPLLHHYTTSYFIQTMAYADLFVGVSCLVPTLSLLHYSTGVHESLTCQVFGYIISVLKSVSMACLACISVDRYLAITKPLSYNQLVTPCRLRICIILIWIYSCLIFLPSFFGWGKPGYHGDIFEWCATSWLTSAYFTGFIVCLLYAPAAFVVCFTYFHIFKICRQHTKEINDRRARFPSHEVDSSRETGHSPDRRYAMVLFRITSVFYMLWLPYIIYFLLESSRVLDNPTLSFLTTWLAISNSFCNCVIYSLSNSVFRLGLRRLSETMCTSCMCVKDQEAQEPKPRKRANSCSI
# ASSAY PROTOCOL: GPR52 Agonist Functional cAMP Assay;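 further: HEKf cells transduced with GPR52 BacMam for 24 h, 2000 per well, exposed to compounds 30 min at 37° C with 0.5 mM IBMX, cAMP read by HTRF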
# EXPERIMENTAL SETUP: pEC50 average, HEKf cells infected with human GPR52 BacMam virus; cAMP HTRF; 30 min at 37° C.
The compounds listed here are annotated with their EC50.
ENDPOINT NAME: EC50 (nM)

- COMPOUND: "O=C1c2cnn(-c3ccnc(Cc4cc(F)cc(C(F)(F)F)c4)c3)c2CCN1CCO"
  U: "nM"
  RECORDED VALUE: 63.1
- COMPOUND: "O=C1NCCOc2c1cnn2-c1cc(Cc2cccc(C(F)(F)F)c2)ccn1"
  U: "nM"
  RECORDED VALUE: 25.1
- COMPOUND: "CC1Cc2c(cnn2-c2ccnc(Cc3cc(F)cc(C(F)(F)F)c3)c2)C(=O)N1 (single isomer, unassigned) [Example 40 Isomer 1]"
  U: "nM"
  RECORDED VALUE: 31.6
- COMPOUND: "O=C1NCCc2c1cnn2-c1ccnc(Cc2cccc(C(F)(F)F)c2F)c1"
  U: "nM"
  RECORDED VALUE: 2510
- COMPOUND: "Cc1nn(-c2ccnc(Cc3cc(F)c(F)c(F)c3)c2)c2c1C(=O)NCC2"
  U: "nM"
  RECORDED VALUE: 15.8
- COMPOUND: "Cc1nn(-c2ccnc(C(O)c3cc(F)cc(C(F)(F)F)c3)c2)c2c1C(=O)NCC2 (single isomer, unassigned) [117 Isomer 2]"
  U: "nM"
  RECORDED VALUE: 25.1
